Target under test: Cbl-b (Homo sapiens (Human), UniProt Q13191)
Sequence (Q13191 40-426): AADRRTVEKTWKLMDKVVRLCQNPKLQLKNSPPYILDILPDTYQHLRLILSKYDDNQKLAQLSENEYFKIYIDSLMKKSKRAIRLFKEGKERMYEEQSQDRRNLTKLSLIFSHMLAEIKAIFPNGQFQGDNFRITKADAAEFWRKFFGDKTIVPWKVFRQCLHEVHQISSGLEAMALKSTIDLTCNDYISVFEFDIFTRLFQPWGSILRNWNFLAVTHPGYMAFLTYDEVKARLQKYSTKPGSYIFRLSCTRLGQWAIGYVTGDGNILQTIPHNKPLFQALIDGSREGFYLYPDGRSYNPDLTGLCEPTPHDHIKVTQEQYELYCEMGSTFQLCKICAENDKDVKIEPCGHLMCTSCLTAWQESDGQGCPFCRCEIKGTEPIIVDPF
Measurement description: Cbl-b LCK Ub TR-FRET assay (Cbl-b Lck HTRF)
Assay type: biochemical
Conditions: ratio C-cbl Lck HTRF IC50 / Cbl-b Lck HTRF IC50
The reader will find reported fold-selectivity (Cbl-b over C-cbl) values listed item by item below.
Reply with just the number (in x).

Record excerpt, results attached:
                                   compound                         target_under_test                     observation_type  scale_unit  value
0  Cn1cnnc1[C@@H](c1cccc(N2Cc3c(cc(CNC4(C)CCC4)cc3C(F)F)C2=O)c1)C1COC1 (single isomer, unassigned)  Cbl-b (Homo sapiens (Human), UniProt Q13191)  fold-selectivity (Cbl-b over C-cbl)           x    2.3
1  Cn1cnnc1[C@@H](c1cccc(N2Cc3c(cc(CNC4(C)CCC4)cc3C(F)(F)F)C2=O)c1)C1CC2(COC2)C1  Cbl-b (Homo sapiens (Human), UniProt Q13191)  fold-selectivity (Cbl-b over C-cbl)           x    1.6
2  CCOc1cc(C2(c3nncn3C)CC(F)(F)C2)cc(N2Cc3c(cc(CNC4(C)CCC4)cc3C(F)(F)F)C2=O)n1  Cbl-b (Homo sapiens (Human), UniProt Q13191)  fold-selectivity (Cbl-b over C-cbl)           x    1.0
3  COc1cc([C@@H](c2nncn2C)C2COC2)cc(N2Cc3c(cc(CNC4(C)CCC4)cc3C(F)(F)F)C2=O)c1 (single isomer, unassigned)  Cbl-b (Homo sapiens (Human), UniProt Q13191)  fold-selectivity (Cbl-b over C-cbl)           x    1.1
4  Cn1cnnc1[C@]1(c2cccc(N3Cc4c(cc(CNC5(C)CCC5)cc4C(F)(F)F)C3=O)c2)C[C@H](F)C1  Cbl-b (Homo sapiens (Human), UniProt Q13191)  fold-selectivity (Cbl-b over C-cbl)           x    1.7

Query string: // lookup fold-selectivity (Cbl-b over C-cbl) for Cn1cnnc1[C@H](c1cccc(N2Cc3c(cc(CNC4(C)CCC4)cc3C(F)(F)F)C2=O)c1)[C@H]1C[C@@H](C)C1 (single isomer, unassigned)
Result string: 11

Query string: Follow-up entry: CO[C@H]1C[C@@](c2cccc(N3Cc4c(cc(CN5CCN(C)C[C@@H]5C(C)C)cc4C(F)(F)F)C3=O)c2)(c2nncn2C)C1 (single isomer, unassigned)
Result string: 3.4

Query string: For COC1CC([C@H](c2cccc(N3Cc4c(cc(CNC5(C)CCC5)cc4C(F)(F)F)C3=O)c2)c2nncn2C)C1 (single isomer, unassigned) [Compound 132] then?
Result string: 8.0

Query string: Would you mind doing Cn1cnnc1C1(c2cccc(N3Cc4c(cc(CNC5(C)CCC5)cc4C(F)(F)F)C3=O)c2)CCCCC1 as well?
Result string: 2.3

Query string: Cool, now CS[C@H]1C[C@](c2cccc(N3Cc4c(cc(CNC5(C)CCC5)cc4C(F)(F)F)C3=O)c2)(c2nncn2C)C1
Result string: 1.4

Query string: Item: CO[C@H]1C[C@](c2cc(NC3COC3)cc(N3Cc4c(cc(CNC5(C)CCC5)cc4C(F)(F)F)C3=O)c2)(c2nncn2C)C1
Result string: 5.6

Query string: Queued: Cn1cnnc1C1(c2cccc(N3Cc4c(cc(CNC5(C)CCC5)cc4C(F)(F)F)C3=O)c2)CN(S(C)(=O)=O)C1
Result string: 5.3

Query string: Request: CO[C@H]1C[C@@](c2cc(N[C@H](C)CC#N)cc(N3Cc4c(cc(CNC5(C)CCC5)cc4C(F)(F)F)C3=O)c2)(c2nncn2C)C1 (single isomer, unassigned)
Result string: 1.3

Query string: Let us now turn to CCNc1cc(N2Cc3c(cc(CNC4(C)CCC4)cc3C(F)(F)F)C2=O)cc([C@]2(c3nncn3C)C[C@@H](OC)C2)c1
Result string: 1.6
